meta.source: ChEMBL document CHEMBL3045324

- Test system: Radical scavenging activity
- assay_remarks: Antioxidant activity assessed as DPPH radical scavenging activity at 1 mg/mL after 15 min UV-vis spectrophotometric analysis relative to control
- Format: functional
Each item that follows carries a reported Activity.
Answer format: value, then unit.

Answered cases to consult:
Task: Bench note: what Activity did `O=C(c1ccc(Br)cc1)c1cc2cc(Br)ccc2o1` show?
Result: 11.7%

Task: So what's the measured Activity for this one? CC(C)C(O)(c1ccc(-c2ccccc2)cc1)c1cc2cc(-c3ccccc3)ccc2o1 (stereo unspecified)
Result: 52.3%

Task: Need Activity, item `CCOc1ccccc1-c1ccc(C(=O)c2cc3cc(-c4ccccc4OCC)ccc3o2)cc1`
Result: 16.1%

Task: Reported Activity for CCOc1ccccc1-c1ccc(C(O)(c2cc3cc(-c4ccccc4OCC)ccc3o2)C(C)(C)C)cc1 (stereo unspecified) : what is it?
Result: 21.2%

Task: Request the reported Activity associated with `O=C(c1ccc(-c2ccccc2)cc1)c1cc2cc(-c3ccccc3)ccc2o1`
Result: 7.3%

Others:
Task: May I ask what Activity has been recorded for OC(Cc1ccccc1)(c1ccc(-c2ccccc2)cc1)c1cc2cc(-c3ccccc3)ccc2o1 (stereo unspecified) ?
Result: 30.5%

Task: Which value of Activity has been reported for `CCc1ccc(-c2ccc(C(=O)c3cc4cc(-c5ccc(CC)cc5)ccc4o3)cc2)cc1` in the records?
Result: 17.3%

Task: Please give the measured Activity for this molecule: CCOc1ccccc1-c1ccc(C(O)c2cc3cc(-c4ccccc4OCC)ccc3o2)cc1 (stereo unspecified)
Result: 19.3%

Task: So what does the record say about Activity for OC(c1ccc(-c2ccccc2)cc1)c1cc2cc(-c3ccccc3)ccc2o1 (stereo unspecified) ?
Result: 79.5%

Task: Requested field: Activity. Item: `N#Cc1ccc(Cl)c(-c2ccc(C(=O)c3cc4cc(-c5cc(C#N)ccc5Cl)ccc4o3)cc2)c1`
Result: 15.8%

Task: Quick check: Activity of `CS(=O)(=O)c1cccc(-c2ccc(C(=O)c3cc4cc(-c5cccc(S(C)(=O)=O)c5)ccc4o3)cc2)c1` ?
Result: 12.3%

---

- Test system: Escherichia coli
- assay_remarks: Antibacterial activity against Escherichia coli NCTC 12923 assessed as growth inhibition at 1 to 50 mg/mL after 24 hr
- Type: functional, organism-based
Calls of active or inactive are those of the source. The calls are words filed in the database; no cut-off is given here.
observable: growth inhibition (GI)

Some solved entries appear below for comparison.
Task: Requested read-out: growth inhibition (GI). Entry: `O=C(c1ccc(-c2ccccc2F)cc1)c1cc2cc(-c3ccccc3F)ccc2o1`
Result: inactive

Task: Consider the compound shown here: CCOc1ccccc1-c1ccc(C(O)(Cc2ccccc2)c2cc3cc(-c4ccccc4OCC)ccc3o2)cc1 (stereo not given) What is its recorded growth inhibition (GI)?
Result: inactive

Task: Entry under review: CS(=O)(=O)c1cccc(-c2ccc(C(O)c3cc4cc(-c5cccc(S(C)(=O)=O)c5)ccc4o3)cc2)c1 (stereo not given) . Reported growth inhibition (GI)?
Result: inactive

Task: Item under review: OC(c1ccc(-c2ccccc2)cc1)c1cc2cc(-c3ccccc3)ccc2o1 (stereo not given) . Reported growth inhibition (GI)?
Result: inactive

Shift focus to the following entry.
Task: Given the entry CCOc1ccccc1-c1ccc(C(O)(c2cc3cc(-c4ccccc4OCC)ccc3o2)C(C)(C)C)cc1 (stereo not given) , report its measured growth inhibition (GI).
Result: inactive

---

- System: Bacillus subtilis
- assay_remarks: Antibacterial activity against Bacillus subtilis NCTC 10400 assessed as growth inhibition after 24 hr
- Assay type: functional
- experimental_parameters: NCTC 10400, 24 h
observable: MIC
Please provide the amount together with its unit, number first.

Example cases with answers are listed next.
Task: Data request, read-out MIC, for `O=C(c1ccc(-c2ccccc2)cc1)c1cc2cc(-c3ccccc3)ccc2o1`
Result: 10 µg/mL

Task: I would be grateful if you could share the reported MIC for `CC(=O)c1ccccc1-c1ccc(C(=O)c2cc3cc(-c4ccccc4C(C)=O)ccc3o2)cc1` .
Result: 100 µg/mL

Let us move to another entry and its MIC.
Task: I'd like to know its MIC. The compound in question is O=[N+]([O-])c1cccc(-c2ccc(C(O)c3cc4cc(-c5cccc([N+](=O)[O-])c5)ccc4o3)cc2)c1 (stereo not drawn)
Result: 500 µg/mL

---

- Tested on: Radical scavenging activity
- assay_remarks: Antioxidant activity assessed as DPPH radical scavenging activity at 1 mg/mL after 15 min UV-vis spectrophotometric analysis relative to control
- Format: functional
observable: Activity (%)
Express your answer in %, writing the number without its unit.

Below are worked cases with known answers.
Task: Any idea what Activity was measured for CCc1ccc(-c2ccc(C(O)(c3cc4cc(-c5ccc(CC)cc5)ccc4o3)C(C)(C)C)cc2)cc1 (stereo not drawn) ?
Result: 24.2

Task: Query (compound): CCc1ccc(-c2ccc(C(O)(c3cc4cc(-c5ccc(CC)cc5)ccc4o3)C(C)C)cc2)cc1 (stereo not drawn) ; field requested: Activity
Result: 34.7

Task: For the compound shown here, OC(c1ccc(-c2ccccc2F)cc1)c1cc2cc(-c3ccccc3F)ccc2o1 (stereo not drawn) , give the reported Activity.
Result: 21.3

Task: # Activity lookup, item CCC(O)(c1ccc(-c2ccccc2)cc1)c1cc2cc(-c3ccccc3)ccc2o1 (stereo not drawn)
Result: 12.9

Task: Requested field: Activity. Item: CCc1ccc(-c2ccc(C(O)(Cc3ccccc3)c3cc4cc(-c5ccc(CC)cc5)ccc4o3)cc2)cc1 (stereo not drawn)
Result: 60.3

Next:
Task: Which Activity reading was recorded for the compound CCOc1ccccc1-c1ccc(C(O)(c2cc3cc(-c4ccccc4OCC)ccc3o2)C(C)C)cc1 (stereo not drawn) ?
Result: 11.4

Task: Which measured Activity value corresponds to `C=Cc1ccc(-c2ccc(C(=O)c3cc4cc(-c5ccc(C=C)cc5)ccc4o3)cc2)cc1` ?
Result: 33.7

---

- System: Bacillus subtilis
- assay_remarks: Antibacterial activity against Bacillus subtilis NCTC 10400 assessed as growth inhibition after 24 hr
- Type: functional
- experimental_parameters: NCTC 10400, 24 h
Each item that follows carries a reported MIC.
Please state the figure in µg/mL; there is no need to write the unit.

In the examples that follow, each entry is paired with its recorded MIC.
Task: Fill in: MIC of `O=C(c1ccc(-c2cccc([N+](=O)[O-])c2)cc1)c1cc2cc(-c3cccc([N+](=O)[O-])c3)ccc2o1` is ___
Result: 50

Task: Record request: MIC value, item OC(c1ccc(-c2ccccc2F)cc1)c1cc2cc(-c3ccccc3F)ccc2o1 (stereo not given)
Result: 50

Task: Could you share which MIC value was measured for `O=C(c1ccc(Br)cc1)c1cc2cc(Br)ccc2o1` ?
Result: 50

Task: Entry under review: `C=Cc1ccc(-c2ccc(C(=O)c3cc4cc(-c5ccc(C=C)cc5)ccc4o3)cc2)cc1` . Reported MIC?
Result: 50

We now examine a further compound.
Task: Query (compound): `CS(=O)(=O)c1cccc(-c2ccc(C(=O)c3cc4cc(-c5cccc(S(C)(=O)=O)c5)ccc4o3)cc2)c1` ; field requested: MIC
Result: 500

---

- Tested on: Candida albicans
- assay_remarks: Antifungal activity against Candida albicans NCPF 3179 assessed as growth inhibition at 1 to 50 mg/mL after 3 days
- Type: functional, organism-based
The source made the active and inactive calls. No cut-off for these calls is given here.
observable: growth inhibition (GI)

Take a look at these entries with their results.
Task: Could you share which growth inhibition (GI) value was measured for OC(c1ccc(-c2ccccc2F)cc1)c1cc2cc(-c3ccccc3F)ccc2o1 (centres undefined) ?
Result: inactive

Task: I would be grateful if you could share the reported growth inhibition (GI) for CCOc1ccccc1-c1ccc(C(O)(Cc2ccccc2)c2cc3cc(-c4ccccc4OCC)ccc3o2)cc1 (centres undefined) .
Result: inactive

Task: Endpoint output: growth inhibition (GI) of CCc1ccc(-c2ccc(C(O)c3cc4cc(-c5ccc(CC)cc5)ccc4o3)cc2)cc1 (centres undefined) . Value?
Result: inactive

Task: What value of growth inhibition (GI) has been reported for the following compound? `CCOc1ccccc1-c1ccc(C(=O)c2cc3cc(-c4ccccc4OCC)ccc3o2)cc1`
Result: inactive

Task: Field request: growth inhibition (GI) | item: CCOc1ccccc1-c1ccc(C(O)(c2cc3cc(-c4ccccc4OCC)ccc3o2)C(C)(C)C)cc1 (centres undefined)
Result: inactive

Task: Endpoint output: growth inhibition (GI) of `O=C(c1ccc(-c2ccccc2F)cc1)c1cc2cc(-c3ccccc3F)ccc2o1` . Value?
Result: inactive

Next:
Task: Need growth inhibition (GI) of CC(C)C(O)(c1ccc(-c2ccccc2)cc1)c1cc2cc(-c3ccccc3)ccc2o1 (centres undefined) , thanks.
Result: inactive

Task: What growth inhibition (GI) value was documented for this compound, CCC(O)(c1ccc(-c2ccccc2)cc1)c1cc2cc(-c3ccccc3)ccc2o1 (centres undefined) ?
Result: inactive

Task: growth inhibition (GI) for OC(c1ccc(-c2ccccc2)cc1)c1cc2cc(-c3ccccc3)ccc2o1 (centres undefined) ?
Result: inactive

Task: Entry under review: OC(Cc1ccccc1)(c1ccc(-c2ccccc2)cc1)c1cc2cc(-c3ccccc3)ccc2o1 (centres undefined) . Reported growth inhibition (GI)?
Result: inactive

Task: Param item = CCc1ccc(-c2ccc(C(O)(Cc3ccccc3)c3cc4cc(-c5ccc(CC)cc5)ccc4o3)cc2)cc1 (centres undefined) ; retrieve measured growth inhibition (GI).
Result: inactive

Task: # get_value(readout='growth inhibition (GI)', item= CCOc1ccccc1-c1ccc(C(O)c2cc3cc(-c4ccccc4OCC)ccc3o2)cc1 (centres undefined) )
Result: inactive

Task: Give the measured growth inhibition (GI) of CC(C)(C)C(O)(c1ccc(-c2ccccc2)cc1)c1cc2cc(-c3ccccc3)ccc2o1 (centres undefined) .
Result: inactive

Task: Which growth inhibition (GI) is reported for this compound? CCc1ccc(-c2ccc(C(O)(c3cc4cc(-c5ccc(CC)cc5)ccc4o3)C(C)C)cc2)cc1 (centres undefined)
Result: inactive

Task: Quick one: growth inhibition (GI) for CCOc1ccccc1-c1ccc(C(O)(CC)c2cc3cc(-c4ccccc4OCC)ccc3o2)cc1 (centres undefined) ?
Result: inactive

Task: Given the compound CCc1ccc(-c2ccc(C(O)(CC)c3cc4cc(-c5ccc(CC)cc5)ccc4o3)cc2)cc1 (centres undefined) , what is its reported growth inhibition (GI)?
Result: inactive
